Target: T1, Cynomolgus monkey GCGR (cynomolgus monkey)
T1 construct: whole, on cells; also called cynomolgus GCGR
Assay: cell ELISA on fixed CHO cells overexpressing GCGR
Method: The expression levels of GCGR were detected after two weeks of pressure screening, After the GCGR-overexpressing cells were fixed to the bottom of 96-well plate, the antibodies were added and the signal strength was used to determine the binding activity of the antibody to GCGR overexpressing CHO cells. The binding abilities of the antibody to the three species of GCGRs were detected with the same binding assay. […]
In this section we review reported EC50 values for a set of binders.
Numbers only; they are read as nM.

Please review the entries below; each comes with its answer.
binder	EC50, nM
ch1803 (antibody, human IgG4 S228P, kappa, F234A L235A, V domains shown, IgG4-AA / kappa chimeric antibody) VH: QFQLHQSGAELVKPGASVKLSCKATGYTFTDYWIEWVKQRPGHGLEWIGEILPGSTYTNYNEKFKGRATFTAEPSSSSAYMQLSGLTTEDSAIYYCSRGLSTLMAVDYFDYWGQGTTLTVSS VL: DIQMTQTTSSLSASLGDRVTINCRASQDISNYLNWYQQKPDGTVKLLIYYSSTLHSGVPSRFSGSGSGTDYSLTISHLEQEDIATYFCQQTNIFPWTFGGGTKLEIRT	0.213
ch1808 (antibody, human IgG4 S228P, kappa, F234A L235A, V domains shown, IgG4-AA / kappa chimeric antibody) VH: QVQLQQSGAELARPGASVKLSCKASGDTFTTNGISWVKQRIGQGLEWIGEIYPRSGNTYYNENFKGKATLTADKSSTTAYMELRRLTSEDSAVYFCARSITSVIGADYFDYWGQGTTLTVSS VL: DIQMTQTTSSLSASLGDRVTISCRASQDISNYLNWYQKKPDGTVKLLIYYSSTLHSGVPSRFSGSGSGTDYSLTISNLEQEDIATYFCQQGNTFPWTFGGGTKLEIKR	0.536

For ch1822 (antibody, human IgG4 S228P, kappa, F234A L235A, V domains shown, IgG4-AA / kappa chimeric antibody) VH: EVRLVESGGDFVQPGRSVKLSCAASGFTFSNYYMAWVRQAPTKGLEWVGSISTGGVNTYYRDSVKGRFTISRDNAESTLYLQMDSLRSEETATYYCARHTTPDYHYGIYFAMDAWGQGTSVTVSS VL: QVTLTQPKSVSGSLRSTITIPCERSSGDIGESYVNWYQQHLGRPPINVIYADDQRPSEVSDRFSGSIDSSSNSASLTITNLQVDDEADYFCQSYDSSIDIFFGGGTKLTVLR , what is its reported EC50?
0.428
